test system: SK-MEL-2; test: NCI tumour cell line growth inhibition, 48 h
Activity calls are given as the source filed them. Rule as the data show it: active = GI50 up to about 1.1 µM and inactive = higher.
Classes used: active, inactive

- compound: "COc1cc2oc3c(c(=O)c2c(O)c1/C=C/C(C)C)C(C=C(C)C)Oc1cc(O)ccc1-3 (stereo unspecified)"
  study system: "SK-MEL-2"
  assigned class: "inactive"
- compound: "O=C(/C=C/c1ccccc1)/C=C/c1ccccc1"
  study system: "SK-MEL-2"
  assigned class: "inactive"
- compound: "C=C(CO)[C@H]1Oc2ccc(C(C)=O)cc2[C@@H]1O"
  study system: "SK-MEL-2"
  assigned class: "inactive"
- compound: "CC(=O)OC1CCC2(C)C(CCC3C2CCC2(C)C(c4ccc(=O)oc4)C(OC(C)=O)CC32O)C1 (stereo unspecified)"
  study system: "SK-MEL-2"
  assigned class: "active"
- compound: "N#Cc1c(-c2ccccc2)c(C=O)c(=O)n2c1[nH]c1ccccc12"
  study system: "SK-MEL-2"
  assigned class: "inactive"
- compound: "O=C(c1ccccc1)[C@H]1Nc2ccc(Cl)cc2[C@H]2CCC[C@@H]12"
  study system: "SK-MEL-2"
  assigned class: "inactive"

----------
test system: NCI-H23; assay: NCI tumour cell line growth inhibition, 48 h
The source made the active and inactive calls. Rule as the data show it: active = GI50 up to about 1.1 µM and inactive = higher.
Below, each entry is listed alongside its reported GI50.
recorded endpoint: GI50

- molecule: "C=CCN(Cc1ccncc1)C(=O)C(O)(c1ccccc1)c1ccccc1"
  readout value: "54.3 µM (inactive)"
- molecule: "Cc1ccc2c(O)cc(-c3ccsc3)nc2n1"
  readout value: "2.77 µM (inactive)"
- molecule: "CC(C)=CCC/C(=C/CC/C(=C\\CCc1ccoc1)C(=O)O)C(=O)O"
  readout value: "> 100 µM (inactive)"
- molecule: "C=C(CCCCC)CN1CCCC1[C@@](C)(O)CC(=O)OCC (stereo not given in full)"
  readout value: "> 100 µM (inactive)"
- molecule: "CCOC(=O)NC(=O)c1cn(CCOCCOC(=O)NCCCCCCNC(=O)OCCOCCn2cc(C(=O)NC(=O)OCC)c(=O)[nH]c2=O)c(=O)[nH]c1=O"
  readout value: "> 100 µM (inactive)"

----------
system: RXF 393; assay: NCI tumour cell line growth inhibition, 48 h
The source made the active and inactive calls. No stated cut-off is given here; in the data, active = GI50 up to about 1.1 µM and inactive = higher.

- molecule: "SC1=NC2=C(CSC/C2=C\\c2ccccc2)C(c2ccccc2)N1 (stereo not given)"
  GI50: "27.9 µM (inactive)"
- molecule: "CCC(C(=O)O)c1ccc(OC)cc1 (stereo not given)"
  GI50: "> 100 µM (inactive)"
- molecule: "CC(=O)OCC1=C(C(=O)O)N2C(=O)C(NC(=O)CSc3ccncc3)C2SC1 (stereo not given)"
  GI50: "> 100 µM (inactive)"
- molecule: "CSc1nc(C)cc(Nc2ccc(O)c(CN3CCCCC3)c2)n1"
  GI50: "67.6 µM (inactive)"
- molecule: "O=C(O)CNS(=O)(=O)c1ccc(NC(=O)c2cccc([N+](=O)[O-])c2)cc1"
  GI50: "> 100 µM (inactive)"
- molecule: "C=C(CN(C)C)C(=O)c1ccc(OC)cc1"
  GI50: "10 µM (inactive)"
- molecule: "Cc1cc(CC(O)(C(F)(F)F)C(F)(F)F)cc(CC(O)(C(F)(F)F)C(F)(F)F)n1"
  GI50: "4.24 µM (inactive)"
- molecule: "O=c1[nH]c(-c2ccc(Cl)cc2)cc2ccsc12"
  GI50: "12.2 µM (inactive)"
- molecule: "c1ccc2c(CN3CCC(C4CCN(Cc5cccc6ccccc56)CC4)CC3)cccc2c1"
  GI50: "11.9 µM (inactive)"
- molecule: "CCOC(=O)/C(C#N)=C/c1ccc2c(-c3c(OCC)ccc4cc(/C=C(\\C#N)C(=O)OCC)ccc34)c(OCC)ccc2c1"
  GI50: "> 100 µM (inactive)"

----------
test system: OVCAR-4; experiment: NCI tumour cell line growth inhibition, 48 h
Calls of active or inactive are those of the source. Rule as the data show it: active = GI50 up to about 1.1 µM and inactive = higher.
Outcomes: 1 = active, 0 = inactive

- compound: "CNC=O"
  assigned class: 0
- compound: "Clc1ccc(C[P+](c2ccccc2)(c2ccccc2)c2ccccc2)c(Cl)c1"
  assigned class: 0
- compound: "COc1cc(OC)c2c(c1)C(=O)C(CC(C)O)=CC2=O (stereo not drawn)"
  assigned class: 0
- compound: "CN(C)c1ccc(/N=N/c2ccccn2)cc1"
  assigned class: 0
- compound: "CSC(SC)=C1Sc2cccc(Cl)c2S1"
  assigned class: 0
- compound: "C/C(=N\\Nc1nc2ccccc2[nH]1)c1ncccn1"
  assigned class: 1
- compound: "OCCN(CCO)CCn1cnc2c(NCc3ccccc3)ncnc21"
  assigned class: 0
- compound: "Cc1nn(C(=O)CC(=O)Nc2ccc(Cl)cc2)c(C)c1/N=N/c1ccccc1C(=O)O"
  assigned class: 0
- compound: "COC(=O)CNC(=O)/C=C/[C@H](O[Si](C)(C)C(C)(C)C)[C@H](/C=C/C(=O)NCC(=O)OC)O[Si](C)(C)C(C)(C)C"
  assigned class: 0
- compound: "Cc1ccc2c(O)cc(-c3ccsc3)nc2n1"
  assigned class: 0
- compound: "O=C(Nc1cc([N+](=O)[O-])cc([N+](=O)[O-])c1)OC1C2CCC1C1OC1C2 (stereo not drawn)"
  assigned class: 0
- compound: "O=C1/C(=C/c2ccc(O)cc2)CCC1CNc1ccccc1 (stereo not drawn)"
  assigned class: 0
- compound: "CC(=O)Nc1ccc(-c2nnc(SCC(=O)Nc3ccc(Cl)cc3)o2)cc1"
  assigned class: 0
- compound: "CCCCCC(=O)N[C@H]1CCc2cc(OC)c(OC)c(OC)c2-c2ccc(SC)c(=O)cc21"
  assigned class: 0
- compound: "CC(C)c1[nH]nc(C(N)=O)c1/N=N/N(C)C"
  assigned class: 0
- compound: "O=C(/C=C/c1ccco1)CC(=O)/C=C/c1ccco1"
  assigned class: 0
- compound: "Nc1ccc(C(=O)Nc2ccccc2N)cc1 [DINALINE]"
  assigned class: 0
- compound: "Cc1ccc(/C=C2\\Sc3scc(-c4ccccc4)[n+]3C2=O)cc1"
  assigned class: 0
- compound: "N#CNc1nc(N)c(-c2ccc(Cl)cc2)c(C(=O)Nc2nccs2)n1"
  assigned class: 0
- compound: "O=C1Sc2sc(=S)sc2SC1c1ccccc1 (stereo not drawn)"
  assigned class: 0
- compound: "CC1CC(=O)N(N(C)C)C(C#N)(C#N)C1(C#N)C#N (stereo not drawn)"
  assigned class: 0
- compound: "CCc1cccc(C(C)CC)c1/N=C(/NC(=O)c1ccccc1C(=O)N/C(=N/c1c(CC)cccc1C(C)CC)SC)SC (stereo not drawn)"
  assigned class: 0
- compound: "N#CC12CNCC1CN=N2 (stereo not drawn)"
  assigned class: 0

----------
GI50 values for the compounds below.
test system: EKVX; assay: NCI tumour cell line growth inhibition, 48 h
Calls of active or inactive are those of the source. No stated cut-off is given here; in the data, active = GI50 up to about 1.1 µM and inactive = higher.

- compound: "Cc1cc(C)nc(NC(=O)COc2ccc(Cl)cc2)c1"
  GI50: "> 100 µM (inactive)"
- compound: "O=C(Cl)c1cc([N+](=O)[O-])cc([N+](=O)[O-])c1"
  GI50: "> 100 µM (inactive)"
- compound: "Nc1ccc(C(=O)Nc2ccccc2N)cc1"
  GI50: "66.2 µM (inactive)"
- compound: "COc1cc2oc3c(c(=O)c2c(O)c1/C=C/C(C)C)C(C=C(C)C)Oc1cc(O)ccc1-3 (configuration not stated)"
  GI50: "16.1 µM (inactive)"
- compound: "CC1=CC(c2ccccc2)OP1(=O)c1ccccc1 (configuration not stated)"
  GI50: "> 100 µM (inactive)"
- compound: "COC(=O)C1C(C)N1C (configuration not stated)"
  GI50: "> 100 µM (inactive)"
- compound: "Cn1cc/c(=N\\N=c2/ccn(C)c3ccccc23)c2ccccc21"
  GI50: "14.7 µM (inactive)"
- compound: "CCN(CC)/N=N/c1c(C(N)=O)n[nH]c1C"
  GI50: "26.9 µM (inactive)"
- compound: "CCOc1ccc(/C(C=O)=C(\\Cl)c2ccc(OC)c(OC)c2)cc1"
  GI50: "> 100 µM (inactive)"
- compound: "CC(C)(O)c1cc2c(cc1C(C)(C)O)-c1ccccc1-2"
  GI50: "59.7 µM (inactive)"
- compound: "Cc1cccc2oc3c(c(=O)c12)CC(O)C(C)(C)O3 (configuration not stated)"
  GI50: "> 100 µM (inactive)"
- compound: "NC(=O)C1CCCNC1 (configuration not stated)"
  GI50: "> 100 µM (inactive)"

----------
test system: SNB-78; test: NCI tumour cell line growth inhibition, 48 h
Activity calls are given as the source filed them. No stated cut-off is given here; in the data, active = GI50 up to about 1.1 µM and inactive = higher.
Outcomes: t (active), f (inactive)

- molecule: "CN(C)C=[N+]=[N-]"
  assigned class: "f"
- molecule: "Nc1ccc(C(=O)Nc2ccccc2N)cc1"
  assigned class: "f"
- molecule: "CCOc1ccccc1NC(=O)C(C#N)C1=C(Cl)C(=O)c2ccccc2C1=O (stereo not given)"
  assigned class: "f"
- molecule: "O=C(O)C1=CCCc2ccc3ccccc3c21"
  assigned class: "f"
- molecule: "COc1ccc(C2=CN3CCC[C@H]3C=C2c2cc(O)c(OC)c(OC)c2)cc1OC"
  assigned class: "t"
- molecule: "O=C1C=CC(=C(c2ccc(O)cc2)c2ccc(O)cc2)C=C1"
  assigned class: "f"
- molecule: "O=C1/C(=C/c2ccc(Cl)cc2)CCC1CN1CCOCC1 (stereo not given)"
  assigned class: "f"
- molecule: "CCNC(=O)C(O)C1(O)CCC2[C@@H]3CCC4=CC(=O)C=C[C@]4(C)C3[C@@H](O)C[C@@]21C (stereo not given in full)"
  assigned class: "f"
- molecule: "Cc1ccc(NC(=O)COC(=O)c2cccc3c(=O)c4ccccc4[nH]c23)cc1"
  assigned class: "f"
- molecule: "COc1cc2c3c(c1OC)/C(=N/OS(=O)(=O)c1ccc(C)cc1)CC3N(S(=O)(=O)c1ccc(C)cc1)CC2 (stereo not given)"
  assigned class: "f"

The measurements presented in this section are drawn from ChEMBL document CHEMBL1201862.
